Some molecules, each annotated with its measured IC50.
Tested on: MV-4-11 cells
Experiment: Inhibitory effect on MV-4-11 cells (CellTiter-Glo)
Type: cell-based
Conditions: Homo sapiens, MV4-11; 72 hours, CellTiter-Glo; read-out: MV-4-11
Number in nM, nothing else.

Below: 6 molecules and their reported IC50.
SMILES CODE: CCS(=O)(=O)Cc1ccc2c(c1)-c1cn(C)c(=O)cc1N(C)N=C2c1ccc(F)cc1Cl
UNIT LABEL: nM
READOUT NUMBER: 17
//
SMILES CODE: CC[C@@H]1N=C(c2ccc(F)cc2)c2cc(Cl)c(NS(=O)(=O)CC)cc2-c2cn(C)c(=O)cc21
UNIT LABEL: nM
READOUT NUMBER: 1
//
SMILES CODE: CCS(=O)(=O)Nc1cc2c(cc1Cl)C(c1ccc(F)cc1)=N[C@@H](C1CC1)c1cc(=O)n(C)cc1-2
UNIT LABEL: nM
READOUT NUMBER: 0.4
//
SMILES CODE: CCS(=O)(=O)Nc1ccc2c(c1)-c1cn(C)c(=O)cc1[C@H](C)N=C2c1ccc(F)cc1
UNIT LABEL: nM
READOUT NUMBER: 1
//
SMILES CODE: C[C@@H]1N=C(c2ccc(F)cc2)c2ccc(CS(=O)(=O)C3CC3)cc2-c2cn(C)c(=O)cc21
UNIT LABEL: nM
READOUT NUMBER: 8
//
SMILES CODE: CCS(=O)(=O)Cc1ccc2c(c1)-c1cn(C)c(=O)cc1[C@H](C(C)C)N=C2c1ccc(F)cc1
UNIT LABEL: nM
READOUT NUMBER: 19

We now examine a further molecule.
Query string: IC50 lookup needed for CCS(=O)(=O)Nc1cc2c(cc1F)C(c1ccc(F)cc1)=NN(C)c1cc(=O)n(C)cc1-2 , thanks.
Result string: 3
